- SUBJECT OF TEST: T1, human PD-L1-his tag protein (human, UniProt Q9NZQ7 19-238)
- T1 construct: also called human PD-L1-His protein; recombinant PD-L1 protein; not shown: his tag
- ASSAY REMARKS: SPR (Biacore), affinity ranking, PDL1-His
QUANTITY: kon

Hu89C10H8-11 (antibody, V domains shown, humanized) VH: EVQLVESGGGLVKPGGSLRLSCAASGFTFSNYWMTWIRQAPGKGLEWVASITNTGSSTFYPDSVKGRFTISRDNAKNSLYLQMNSLRAEDTAVYYCTRDTTIAPFDYWGQGTMVTVSS VL: DIQMTQSPSSLSASVGDRVTITCKASQNLNEYLNWYQQKPGKAPKRLIYKTNTLQAGIPSRFSGSGSGIDYTLTISSLQPEDFATYYCSQYNSGNTFGQGTKLEIK ... 700000 M⁻¹ s⁻¹
Hu67F3G7-10 (antibody, V domains shown, humanized) VH: EVQLVQSGAEVKKPGASVKVSCKASGYIFTDFWVSWVRQAPGKGLEWIGEIYPNSGVSRYNEKFKGRVTMTVDKSISTAYMELSRLRSDDTAVYYCTKYFGYTYWFGYWGQGTLVTVSS VL: DTVLTQSPSSLSASVGDRVTITCRASKSVSTYMHWYQQKPGKAPKLLIYSASHLESGVPSRFSGSGSGTDFTLTISSLQPEDFATYYCQQSNELPVTFGGGTKVEIK ... 2.38e+06 M⁻¹ s⁻¹
Hu89C10H8-6 (antibody, V domains shown, humanized) VH: EVQLVESGGGLVKPGGSLRLSCAASGFTFSNYWMTWVRQAPGKGLEWVASITNTGSSTFYPDSVKGRFTISRDNAKNSLYLQMNSLRAEDTAVYYCTRDTTIAPFDYWGQGTMVTVSS VL: DIQMTQSPSSLSASVGDRVTITCKASQNLNEYLNWYQQKPGKAPKRLIYKTNTLQAGIPSRFSGSGSGTDYTLTISSLQPEDFATYYCSQYNSGNTFGQGTKLEIK ... 701000 M⁻¹ s⁻¹
Hu89C10H8-2 (antibody, V domains shown, humanized) VH: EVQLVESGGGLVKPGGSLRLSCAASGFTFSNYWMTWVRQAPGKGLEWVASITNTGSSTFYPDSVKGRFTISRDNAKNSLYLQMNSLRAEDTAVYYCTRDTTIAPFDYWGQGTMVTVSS VL: DIQMTQSPSSLSASVGDRVTITCKASQNLNEYLNWYQQKPGKAPKRLIYKTNTLQAGVPSRFSGSGSGTDYTLTISSLQPEDFATYYCSQYNSGNTFGQGTKLEIK ... 641000 M⁻¹ s⁻¹
Hu67F3G7-20 (antibody, V domains shown, humanized) VH: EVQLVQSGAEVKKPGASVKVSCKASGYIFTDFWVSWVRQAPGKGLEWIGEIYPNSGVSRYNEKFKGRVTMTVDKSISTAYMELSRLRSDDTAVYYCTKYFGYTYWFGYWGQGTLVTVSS VL: DTVLTQSPSLSASVGDRVTITCRASKSVSTYMHWYQQKPGKQPKLLIYSASHLESGVPSRFSGSGSGTDFTLTISSLQPEDFATYYCQQSNELPVTFGGGTKVEIK ... 2.7e+06 M⁻¹ s⁻¹

These entries and their values trace back to patent US20230287125A1.
